We begin with a simple list: items and their reported Best CI.
test system: panel of breast cancer cell lines; assay: Compound A with targeted agents and chemotherapies, 72-hour in vitro proliferation assays; assay type: cell-based; settings: HCC38; compound A × partner, 72-hour proliferation
measuredParameter: Best CI

CCN1CCN(Cc2ccc(Nc3ncc(F)c(-c4cc(F)c5nc(C)n(C(C)C)c5c4)n3)nc2)CC1 | 0.83
CC(C)NC[C@@H](C(=O)N1CCN(c2ncnc3c2[C@H](C)C[C@H]3O)CC1)c1ccc(Cl)cc1 | 1.04
CC1(C)CCC(c2ccc(Cl)cc2)=C(CN2CCN(c3ccc(C(=O)NS(=O)(=O)c4ccc(N[C@H](CCN5CCOCC5)CSc5ccccc5)c(S(=O)(=O)C(F)(F)F)c4)cc3)CC2)C1 | 0.13
O=C(c1cc(Cc2n[nH]c(=O)c3ccccc23)ccc1F)N1CCN(C(=O)C2CC2)CC1 | 0.72

###

system: panel of breast cancer cell lines; assay: Compound A with targeted agents and chemotherapies, 72-hour in vitro proliferation assays; type: cell-based; settings: AU565 cell line; compound A × partner; 72-hour proliferation
measuredParameter: Synergy Score

N.N.[Cl][Pt][Cl] [Cisplatin] | 1.66
CC1(C)CCC(c2ccc(Cl)cc2)=C(CN2CCN(c3ccc(C(=O)NS(=O)(=O)c4ccc(N[C@H](CCN5CCOCC5)CSc5ccccc5)c(S(=O)(=O)C(F)(F)F)c4)cc3)CC2)C1 [ABT-263] | 14.69
C[C@]12CC[C@@H]3c4ccc(O)cc4C[C@@H](CCCCCCCCC[S+]([O-])CCCC(F)(F)C(F)(F)F)[C@H]3[C@@H]1CC[C@@H]2O (stereo partly drawn) [Fulvestrant] | 3.43
CCOc1cc2ncc(C#N)c(Nc3ccc(OCc4ccccn4)c(Cl)c3)c2cc1NC(=O)/C=C/CN(C)C [Neratinib] | 19.43
CC(C)NC[C@@H](C(=O)N1CCN(c2ncnc3c2[C@H](C)C[C@H]3O)CC1)c1ccc(Cl)cc1 [GDC-0068] | 6.93
CC(=O)O[C@@]12CO[C@@H]1C[C@H](O)[C@@]1(C)C(=O)[C@H](O)C3=C(C)[C@@H](OC(=O)[C@H](O)[C@@H](NC(=O)OC(C)(C)C)c4ccccc4)C[C@@](O)([C@@H](OC(=O)c4ccccc4)[C@H]21)C3(C)C [Docetaxel] | 7.58

###

test system: panel of breast cancer cell lines; assay: Compound A with targeted agents and chemotherapies, 72-hour in vitro proliferation assays; type: cell-based; conditions: BT-20 cell line; compound A × partner; 72-hour proliferation
Structures can show the parent of a compound that is named as a salt.
Classification scheme (Loewe Volume): low = under -0.3, medium = from -0.3 up to 7, high = 7 and over

CCOc1cc2ncc(C#N)c(Nc3ccc(OCc4ccccn4)c(Cl)c3)c2cc1NC(=O)/C=C/CN(C)C [Neratinib] | high
Nc1ccn([C@@H]2O[C@H](CO)[C@@H](O)C2(F)F)c(=O)n1 [Gemcitabine Hydrochloride] | medium
Cc1c(-c2ccc(N3CCc4cccc(C(=O)Nc5nc6ccccc6s5)c4C3)nc2C(=O)O)cnn1CC12CC3CC(CC(C3)C1)C2 [Compound A-1331852] | high
N.N.[Cl][Pt][Cl] [Cisplatin] | low
CC(C)NC[C@@H](C(=O)N1CCN(c2ncnc3c2[C@H](C)C[C@H]3O)CC1)c1ccc(Cl)cc1 [GDC-0068] | high
N.N.O=C([O-])C1(C(=O)[O-])CCC1.[Pt+2] [Carboplatin] | low
CN(C)C(=O)c1cc2cnc(Nc3ccc(N4CCNCC4)cn3)nc2n1C1CCCC1 [LEE011] | low
CCN1CCN(Cc2ccc(Nc3ncc(F)c(-c4cc(F)c5nc(C)n(C(C)C)c5c4)n3)nc2)CC1 [Abemaciclib] | medium
CC(=O)c1c(C)c2cnc(Nc3ccc(N4CCNCC4)cn3)nc2n(C2CCCC2)c1=O [PD-0332991] | low
